# credit: ChEMBL document CHEMBL1201862

Tested on: SNB-75
method: NCI tumour cell line growth inhibition, 48 h
The source made the active and inactive calls. Rule as the data show it: active = GI50 up to about 1.1 µM and inactive = higher.
Please respond with reported GI50 for every item in the list.

Worked set:
compound | result
CCC12C=CCN(CCc3c([nH]c4ccccc34)/C=C\1)C2 (configuration not stated) | 44.6 µM (inactive)
COCO[C@@H]1C[C@H]2C(=O)N(COC)c3ccccc3C(=O)N2C1 | > 100 µM (inactive)
Cn1c(=O)c2c(nc(N3CCOCC3)n2CCCNCC(O)c2ccc(O)c(O)c2)n(C)c1=O (configuration not stated) | > 100 µM (inactive)
CC(OP(=O)(O)O)C(N)C(=O)O (configuration not stated) | > 100 µM (inactive)
COc1ccc2[nH]c3c(C)c4ncccc4c(C)c3c2c1 | 9.91 µM (inactive)
COc1nc(NC2OC(COC(C)=O)C(OC(C)=O)C(OC(C)=O)C2OC(C)=O)c(/N=C/C=N/c2c(NC3OC(COC(C)=O)C(OC(C)=O)C(OC(C)=O)C3OC(C)=O)nc(OC)[nH]c2=O)c(=O)[nH]1 (configuration not stated) | > 100 µM (inactive)

Q: // output GI50; input CC1=CC(=C(c2ccc(N)c(C)c2)c2ccc(N)c(C)c2)C=CC1=N ; system SNB-75
A: 1.51 µM (inactive)

###

System: SK-MEL-28
method: NCI tumour cell line growth inhibition, 48 h
The source made the active and inactive calls. Cut-off read from the data, not from the text of the source: active = GI50 up to about 1.1 µM and inactive = higher.
Please respond with reported GI50 for every item in the list.

Worked set:
molecule | test.target | GI50
O=C(Nc1ccccc1)c1cc(S(=O)(=O)Nc2n[nH]c(=O)n2-c2ccccc2)c(S)cc1Cl | SK-MEL-28 | > 100 µM (inactive)
COc1ccc(C(=O)C(c2ccc(OC)cc2)C2(O)C(=O)Nc3c(C)cc(Cl)cc32)cc1 (centres undefined) | SK-MEL-28 | > 100 µM (inactive)
O=C(N/N=C(COc1ccccc1)\N=C\c1cccnc1)c1ccncc1 | SK-MEL-28 | > 100 µM (inactive)
CCC12C=CCN3CCC4(c5cc(C(c6ccc(OC)cc6)C6Cc7ccccc7N6)c(OC)cc5N(C)C4C(O)(C(=O)OC)C1O)C32 (centres undefined) | SK-MEL-28 | 30.2 µM (inactive)
CC(=O)OCC1=C(C)C(OC(=O)C(OC(C)=O)[C@@H](NC(=O)c2ccccc2)c2ccccc2)CCC1(C)C (some centres undefined) | SK-MEL-28 | > 100 µM (inactive)
C[N+]1(c2ccccc2)C=C(c2ccccc2)SC1=S (centres undefined) | SK-MEL-28 | 7.33 µM (inactive)
CC1=NN(C(=O)Nc2ccccc2)C(=O)C2CCC(=O)N12 (centres undefined) | SK-MEL-28 | > 100 µM (inactive)
COc1cc(CC(C)C(C)Cc2ccc(O)c(OC)c2)ccc1O (centres undefined) [DIHYDROGUAIARETIC ACID] | SK-MEL-28 | 21 µM (inactive)

Each of the following entries comes with a recorded value; kindly state GI50 for each.
1. O=C(c1cccs1)N(C(=S)OC12CC3CC(CC(C3)C1)C2)c1ccccc1
2. Cn1c2ccccc2c2ccc3c(c21)C(=O)c1ccc2c4ccccc4n(C)c2c1C3=O
3. O=C(CC1S/C(=N\c2ccccc2Cl)NC1=O)Nc1ccc(Cl)cc1 (centres undefined)
4. Nc1nc(SCCC/C=C/B(O)O)nc2c1ncn2C1OC(COP(=O)(O)O)C(O)C1O (centres undefined)
5. COc1cc(S(=O)(=O)Nc2nc(-c3ccc(N4C(=O)/C(=C\c5cccs5)N=C4c4ccccc4)cc3)cs2)ccc1Cl
6. CCN(CCCl)c1ccc(NC(=O)c2cc(C(=O)NCCN(C)C)cc(C(=O)Nc3ccc(N(CC)CCCl)cc3)c2)cc1

A:
1: 54.8 µM (inactive); 2: > 100 µM (inactive); 3: > 100 µM (inactive); 4: > 203 µM (inactive); 5: 71.6 µM (inactive); 6: 16.6 µM (inactive)

###

Please respond with reported GI50 for every item in the list.
Test system: CCRF-CEM
method: NCI tumour cell line growth inhibition, 48 h
Activity calls are given as the source filed them. Rule as the data show it: active = GI50 up to about 1.1 µM and inactive = higher.

Worked set:
compound | endpoint.name | result
CN1C(=O)CN=C(c2ccccc2F)c2cc(N=C=S)ccc21 | GI50 | 19.2 µM (inactive)
CC(C)OP(=O)(OC(C)C)C(C)(C)O | GI50 | > 100 µM (inactive)
COC(=O)C1=CON2C3CC4CC(C3)CC(C4)C12C (stereo not given) | GI50 | > 100 µM (inactive)
CC(=O)Nc1ccc2cc3[nH]c4cc(NC(C)=O)ccc4c3nc2c1 | GI50 | 38 µM (inactive)

Here is another compound to look at.
Q: Output measured GI50 for this item: CC(=O)NC1C(OCc2ccccc2)OC(CO)C(O)C1OC(C)C(=O)NC(C(=O)NC(CCC(=O)NCCCC(=O)Nc1ccc2c(c1)CN1C(=O)c3ccccc3C1=N2)C(N)=O)C(C)C (stereo not given)
A: > 100 µM (inactive)

###

Test system: HCC 2998
method: NCI tumour cell line growth inhibition, 48 h
Activity calls are given as the source filed them. No stated cut-off is given here; in the data, active = GI50 up to about 1.1 µM and inactive = higher. Residues, ends and D or L forms follow the SMILES beside them.
Tick one outcome: active, inactive

Examples with answers:
compound | category
O=C(CC1S/C(=N\c2ccccc2Cl)NC1=O)Nc1ccc(Cl)cc1 (stereo not given) | inactive
O=c1c2ccccc2nc(-c2ccccc2)n1O | inactive
C=CCN1C(=O)/C(=C/c2cccs2)N=C1SC/C=C/C | inactive
O=C(OC/C=C1C=C(OC(=O)c2ccccc2)/C(=N/N(C(=O)c2ccccc2)c2ccccc2)O\1)c1ccccc1 | active
C[C@H]1[C@H]2[C@H](C[C@@]3(C)C4=CC[C@H]5C(C)(C)[C@@H](OC6OCC(O)C(O)C6O)CC[C@@]56C[C@@]46CC[C@]23C)O[C@@]2(O)[C@@H]1OC(C)(C)[C@H]2O (stereo not given in full) | active
COC(=O)C1(Cc2ccccc2C)Cc2ccc(C)cc2C1=O (stereo not given) | inactive
N#Cc1nc(Nc2ccc(Cl)cc2)sc1N | inactive
COc1cc(CC(C)C(C)Cc2ccc(O)c(OC)c2)ccc1O (stereo not given) [DIHYDROGUAIARETIC ACID] | inactive

Q: Please state the recorded outcome for this compound: C=C(Cl)C(Cl)(CBr)CCCC(C)(C)Cl (stereo not given)
A: inactive

Q: Please state the recorded outcome for this compound: CC(=O)NC(CO)C(=O)NC(Cc1ccc(O)cc1)C(=O)NCC(N)=O (stereo not drawn) (Ac-Ser-Tyr-Gly-NH2; configuration not given here)
A: inactive

###

Test system: NCI-H522
method: NCI tumour cell line growth inhibition, 48 h
Activity calls are given as the source filed them. Rule as the data show it: active = GI50 up to about 1.1 µM and inactive = higher.
endpoint.name: GI50

compound | endpoint.name | result
COC(=O)[C@@H]1[C@@H]2NC(=S)N[C@@]1(C)Oc1ccccc12 | GI50 | 31.6 µM (inactive)
CN(/N=C\c1ccnc2ccccc12)c1ccccc1 | GI50 | 17.8 µM (inactive)
Nc1nc(=O)c(/N=N/c2ccccc2)c(N)[nH]1 | GI50 | 47.4 µM (inactive)
CCCCCNC(=O)C1C(=O)N(CCCCC)C(=O)/C1=N\N (stereo not given) | GI50 | 31.6 µM (inactive)
OC(CC(O)(C(F)(F)F)C(F)(F)F)C(O)c1ccco1 (stereo not given) | GI50 | > 10 µM (inactive)

Each of the following entries comes with a recorded value; kindly state GI50 for each.
1. COc1ccc(/C=C2\N=C(c3ccccc3)N(Nc3nnc(NN4C(=O)/C(=C/c5ccc(OC)cc5)N=C4c4ccccc4)c4ccccc34)C2=O)cc1
2. COc1ccc(NCC(=O)Nn2c(-c3ccccc3)nc3ccccc3c2=O)cc1
3. CCOC(=O)/C=C(/CN1C(=O)c2ccccc2C1=O)c1ccccc1
4. CC(=O)Nc1ccc2cc3[nH]c4cc(NC(C)=O)ccc4c3nc2c1
5. O=c1c2ccccc2nc(-c2ccccc2)n1O

A:
["35.1 µM (inactive)", "> 10 µM (inactive)", "> 100 µM (inactive)", "> 100 µM (inactive)", "> 100 µM (inactive)"]

###

Tested on: BT-549
method: NCI tumour cell line growth inhibition, 48 h
Activity calls are given as the source filed them. Cut-off read from the data, not from the text of the source: active = GI50 up to about 1.1 µM and inactive = higher. Residues, ends and D or L forms follow the SMILES beside them.
Tick one outcome: active, inactive

Examples with answers:
molecule | category
COC(=O)[C@H](Cc1ccccc1)NC(=O)CCCCCCC(=O)NO | inactive
CC(=O)O[C@@]12CO[C@@H]1C[C@@H](O)[C@@]1(C)C(=O)[C@H](O)C3=C(C)[C@@H](OC(=O)[C@H](O)[C@@H](NC(=O)c4ccccc4)c4ccccc4)C[C@@](O)([C@@H](OC(=O)c4ccccc4)C12)C3(C)C (stereo partly drawn) | active
COC(=O)c1sc(=S)sc1SCc1ccc(CSc2sc(=S)sc2C(=O)OC)cc1 | inactive
Cc1nc2ccccc2c(=O)n1NC(=O)Cc1ccccc1 | inactive
O=C(O)c1cccc(CC(Br)C(=O)O)c1 (stereo not drawn) | inactive

Q: Please state the recorded outcome for this molecule: CC(=O)NC(CO)C(=O)NC(Cc1ccc(O)cc1)C(=O)NCC(N)=O (stereo not drawn) (Ac-Ser-Tyr-Gly-NH2; configuration not given here)
A: inactive

Q: Please state the recorded outcome for this molecule: CCC/C(Cl)=N\OC(=O)Nc1ccc(F)c([N+](=O)[O-])c1
A: inactive

Q: Please state the recorded outcome for this molecule: CC(=O)OC1C(C)OC(OC2C[C@](O)(C(C)=O)Cc3c(O)c4c(c(O)c32)C(=O)c2ccccc2C4=O)C(F)C1OC(C)=O (stereo partly drawn)
A: active
